# targetOrTestSystem: pERK1/2 (Thr202/Tyr204), NCI-1H358 (KRAS G12C) (Homo sapiens, UniProt P01116, G12C)
# Construct: pERK1/2 HTRF read-out
# Sequence (P01116 1-188 isoform P01116-2 G12C): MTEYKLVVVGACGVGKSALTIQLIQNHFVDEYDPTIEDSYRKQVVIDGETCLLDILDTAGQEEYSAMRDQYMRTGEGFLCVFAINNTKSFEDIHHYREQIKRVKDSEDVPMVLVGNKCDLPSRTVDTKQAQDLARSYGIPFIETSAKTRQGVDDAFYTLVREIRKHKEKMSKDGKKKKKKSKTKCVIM
# protocol: Assay of intracellular pERK1/2 (Thr202/Tyr204) phosphorylation in NCI-H358 cells (KRAS G12C)
# Assay type: cell-based
# conditionLabel: pERK1/2, 2 days, read-out: NCI-H358 (KRAS G12C) IC50
pIC50: −log10 of the molar value.
testReadout: pIC50

In the examples that follow, each entry is paired with its recorded pIC50.
[
  {
    "molecule": "CC(c1cccnc1N)N1CCOc2nc(-c3nc(N)cc4ccccc34)c(F)c3nc(OC[C@@H]4CCCN4C)nc1c23 (stereo partly drawn) [Compound 28]",
    "pIC50": 6.35
  },
  {
    "molecule": "CC(c1cccnc1N)N1CCOc2nc(-c3cc(N)cc(Cl)c3C3CC3)c(F)c3nc(OC[C@@]45CCCN4C[C@H](F)C5)nc1c23 (stereo partly drawn) [Compound 66]",
    "pIC50": 9.70
  }
]

1 = Cc1cc2[nH]ncc2c(-c2nc3c4c(nc(OC[C@@]56CCCN5C[C@H](F)C6)nc4c2F)N(C(C)c2cccnc2N)CCO3)c1C (stereo partly drawn) [Compound 2]
2 = Cc1cc2[nH]ncc2c(-c2nc3c4c(nc(OC[C@@]56CCCN5C[C@H](F)C6)nc4c2F)N([C@H](C)c2cc(F)cnc2N)[C@@H](C)CO3)c1C(F)(F)F [Compound 342]
INPUT: Identify the entry with the smaller pIC50: 1 or 2 . Write down the label of the entry you select.
OUTPUT: 1
(1: 8.05, 2: 9.70)

1 = [2H]C([2H])([2H])N1CCC[C@H]1COc1nc2c3c(nc(-c4cc(N)cc(C)c4C(F)(F)F)c(F)c3n1)OCCN2C(C)c1cccnc1N (single isomer, unassigned) [Compound 96]
2 = [2H]C([2H])([2H])N1CCC[C@H]1COc1nc2c3c(nc(-c4cc(N)cc(Cl)c4C(F)(F)F)c(F)c3n1)OCCN2C(C)c1cccnc1N (stereo partly drawn) [Compound 111]
3 = CC(c1cccnc1N)N1CCOc2nc(-c3cc(N)c(F)c(Cl)c3C(F)(F)F)c(F)c3nc(OC[C@@H]4C[C@@H](F)CN4C)nc1c23 (stereo partly drawn) [Compound 205]
4 = [2H]C1([2H])CC[C@@]2(COc3nc4c5c(nc(-c6cc(N)c(F)c(Cl)c6C(F)(F)F)c(F)c5n3)OCCN4C(C)c3cccnc3N)C[C@@H](F)CN12 (stereo partly drawn) [Compound 221]
5 = CCOc1nc2c3c(nc(-c4cc(O)cc5ccc(F)c(F)c45)c(F)c3n1)OCCN2C(C)c1cccnc1N (stereo not drawn) [Compound 10]
INPUT: Order the items by recorded pIC50; the first position goes to the largest value. // format: requested-order list of labels
OUTPUT: 4, 3, 2, 1, 5
